Target: Recombinant human his-tagged IGF R extracellular domain protein (human) (UniProt P08069)
Experiment: SPR, Ab captured via anti-huIgG Fc, pH 7.4
readout name: koff (s⁻¹)
Only the number, expressed in s⁻¹, is required.

As a guide, the following entries are already answered.
binder	val
VRDN-02076 (antibody, V domains shown) VH: QVQLQESGPGLVKPSETLSLTCTVSGYSITGGYLWNWIRQPPGKGLEWIGYISYHGTNNYKPSLKDRVTISRDTSKNQFSLKLSSVTAADTAVYYCARHGRVFFDYWGQGTLVTVSS VL: DIVMTQSPLSLPVTPGEPASISCRSHQSIVHSNGNTYLQWYLQKPGQSPQLLIYKVSNRLYGVPDRFSGSGSGTDFTLKISRVEAEDVGVYYCFQGSHVPHTFGQGTKVEIK	2.46e-05
VRDN-02009 (antibody, V domains shown) VH: QVQLQESGPGLVKPSETLSLTCTVSGYSITGGYHWNWIRQPPGKGLEWIGYISYDGTNNYKPSLKDRVTISRDTSKNQFSLKLSSVTAADTAVYYCARYGRVFFDYWGQGTLVTVSS VL: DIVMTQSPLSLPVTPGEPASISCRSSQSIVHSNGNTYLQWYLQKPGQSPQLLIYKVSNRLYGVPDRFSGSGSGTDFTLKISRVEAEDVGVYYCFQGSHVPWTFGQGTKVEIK	3.98e-05

API: the following record is the query input.
Let me know recorded koff for VRDN-02070 (antibody, V domains shown) VH: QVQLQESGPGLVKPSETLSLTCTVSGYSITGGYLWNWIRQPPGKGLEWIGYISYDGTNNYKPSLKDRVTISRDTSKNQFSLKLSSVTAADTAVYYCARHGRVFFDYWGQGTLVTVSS VL: DIVMTQSPLSLPVTPGEPASISCRSSQSIVHSNGNTYLQWYLQKPGQSPQLLIYKVSNRLYGVPDRFSGSGSGTDFTLKISRVEAEDVGVYYCFQGSHVPHTFGQGTKVEIK , thanks. 3.38e-05
